Below are compounds with their log10(Ki) as measured on UniProt:P31424.
Sequence (P31424 whole entry): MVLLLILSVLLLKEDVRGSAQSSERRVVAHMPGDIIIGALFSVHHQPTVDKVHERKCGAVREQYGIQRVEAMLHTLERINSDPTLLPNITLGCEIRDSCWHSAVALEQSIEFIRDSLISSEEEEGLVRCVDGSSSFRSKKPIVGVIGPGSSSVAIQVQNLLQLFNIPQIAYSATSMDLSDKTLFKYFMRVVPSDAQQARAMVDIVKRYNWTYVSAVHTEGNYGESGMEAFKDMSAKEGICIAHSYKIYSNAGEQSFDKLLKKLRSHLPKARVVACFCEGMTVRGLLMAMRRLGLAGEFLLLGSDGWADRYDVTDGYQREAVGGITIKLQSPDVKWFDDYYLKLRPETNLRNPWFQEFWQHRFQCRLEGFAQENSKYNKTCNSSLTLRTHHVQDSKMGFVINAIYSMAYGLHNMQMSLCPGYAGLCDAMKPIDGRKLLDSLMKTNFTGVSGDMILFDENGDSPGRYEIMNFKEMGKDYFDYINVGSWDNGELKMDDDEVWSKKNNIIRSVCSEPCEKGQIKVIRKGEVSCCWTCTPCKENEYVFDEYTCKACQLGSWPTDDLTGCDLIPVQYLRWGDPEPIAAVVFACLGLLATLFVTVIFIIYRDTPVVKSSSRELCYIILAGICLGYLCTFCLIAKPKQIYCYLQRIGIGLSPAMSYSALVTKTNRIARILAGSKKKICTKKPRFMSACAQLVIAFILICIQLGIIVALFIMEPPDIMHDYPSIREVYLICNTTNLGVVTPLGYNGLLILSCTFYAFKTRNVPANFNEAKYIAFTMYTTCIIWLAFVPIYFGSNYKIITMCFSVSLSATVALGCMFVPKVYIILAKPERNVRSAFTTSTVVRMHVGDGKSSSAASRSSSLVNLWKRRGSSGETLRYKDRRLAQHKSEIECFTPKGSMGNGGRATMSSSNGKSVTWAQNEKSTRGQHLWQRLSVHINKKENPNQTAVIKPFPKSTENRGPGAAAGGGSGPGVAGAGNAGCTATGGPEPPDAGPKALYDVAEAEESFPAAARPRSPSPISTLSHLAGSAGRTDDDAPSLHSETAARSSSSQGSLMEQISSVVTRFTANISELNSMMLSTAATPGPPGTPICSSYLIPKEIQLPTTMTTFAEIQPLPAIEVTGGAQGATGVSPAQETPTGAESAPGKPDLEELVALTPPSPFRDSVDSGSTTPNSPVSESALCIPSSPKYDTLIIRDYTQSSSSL
Could you please treat all values as log10 of Ki in nM?

smiles_code=N#Cc1cc(F)cc(S(=O)(=O)c2sc3ncc(N)cc3c2-c2ccc(Cl)cc2)c1 tested_system=UniProt:P31424 assay_value=0.34
smiles_code=N#Cc1cc(F)cc(S(=O)(=O)c2sc3ncc(N)cc3c2-c2cnccc2Cl)c1 tested_system=UniProt:P31424 assay_value=0.97
smiles_code=O=S(=O)(c1cc(F)cc(F)c1)c1sc2ncccc2c1-c1ccc(Cl)cc1 tested_system=UniProt:P31424 assay_value=1.56
smiles_code=O=S(=O)(c1ccc(Cl)cc1)c1sc2nc(Cl)ccc2c1-c1ccc(Cl)cc1 tested_system=UniProt:P31424 assay_value=1.97
smiles_code=N#Cc1cc(F)cc(S(=O)(=O)c2sc3nc(F)ccc3c2-c2ccc(F)cc2)c1 tested_system=UniProt:P31424 assay_value=0.45

q: Given the compound Cc1ccc(-c2c(S(=O)(=O)c3cccc(C#N)c3)sc3ncccc23)cc1 , write its reported log10(Ki).
a: 0.48

q: Given the compound O=S(=O)(c1ccc(Cl)c(Cl)c1)c1sc2ncccc2c1-c1ccc(Cl)cc1 , write its reported log10(Ki).
a: 1.03

---

System: Liver microsome
Assay: Intrinsic clearance in Wistar rat liver microsomes measured per gram of tissue at 2.5 uM
Format: ADME
Experimental endpoint: CLH
Report field: quantity (unit follows the number).

smiles_code=O=S(=O)(c1ccc(Cl)cc1)c1sc2ncccc2c1-c1ccccc1F tested_system="Liver microsome" experimental_endpoint=CLH assay_value="4.1 mL/min/g"
smiles_code=N#Cc1ccc(-c2c(S(=O)(=O)c3cccc(C#N)c3)sc3ncccc23)cc1 tested_system="Liver microsome" experimental_endpoint=CLH assay_value="2.9 mL/min/g"
smiles_code=Cc1cccc(-c2c(S(=O)(=O)c3cccc(C#N)c3)sc3ncccc23)c1 tested_system="Liver microsome" experimental_endpoint=CLH assay_value="17.7 mL/min/g"
smiles_code=N#Cc1cc(F)cc(S(=O)(=O)c2sc3ncc(N)cc3c2-c2c(F)cncc2F)c1 tested_system="Liver microsome" experimental_endpoint=CLH assay_value="0.8 mL/min/g"
smiles_code=N#Cc1cc(F)cc(S(=O)(=O)c2sc3ncc(N)cc3c2-c2cnccc2F)c1 tested_system="Liver microsome" experimental_endpoint=CLH assay_value="0.7 mL/min/g"

q: Given the compound Cc1ccc(-c2c(S(=O)(=O)c3cccc(C#N)c3)sc3ncccc23)cc1 , write its reported CLH.
a: 17.3 mL/min/g

q: Given the compound O=S(=O)(c1ccc(Cl)cc1)c1sc2nc(Cl)ccc2c1-c1ccc(Cl)cc1 , write its reported CLH.
a: 3.4 mL/min/g

q: Given the compound N#Cc1cc(F)cc(S(=O)(=O)c2sc3ncccc3c2-c2cnccc2Cl)c1 , write its reported CLH.
a: 1 mL/min/g

q: Given the compound N#Cc1cccc(S(=O)(=O)c2sc3ncccc3c2-c2cccc(Cl)c2)c1 , write its reported CLH.
a: 10.8 mL/min/g

---

System: Liver microsome
Test: Intrinsic clearance in human liver microsomes measured per gram of tissue at 2.5 uM
Type: ADME
Each entry below lists one item and its recorded log10(CLH) value.
Could you please treat all values as log10 of CLH in mL/min/g?

The following compounds have reported results that may help.
smiles_code=O=S(=O)(c1ccc(Cl)cc1)c1sc2ncccc2c1-c1ccc(F)cc1 tested_system="Liver microsome" experimental_endpoint=log10(CLH) assay_value=0.53
smiles_code=Nc1cnc2sc(S(=O)(=O)c3ccc(Cl)cc3)c(-c3ccc(Cl)cc3)c2c1 tested_system="Liver microsome" experimental_endpoint=log10(CLH) assay_value=0.20
smiles_code=O=S(=O)(c1ccc(Cl)cc1)c1sc2nccc(O)c2c1-c1ccc(Cl)cc1 tested_system="Liver microsome" experimental_endpoint=log10(CLH) assay_value=-2.00
smiles_code=O=S(=O)(c1ccc(Cl)cc1)c1sc2ncc(F)cc2c1-c1ccc(Cl)cc1 tested_system="Liver microsome" experimental_endpoint=log10(CLH) assay_value=-0.52
smiles_code=CN(C)c1ccc2c(-c3ccc(Cl)cc3)c(S(=O)(=O)c3ccc(Cl)cc3)sc2n1 tested_system="Liver microsome" experimental_endpoint=log10(CLH) assay_value=0.15

q: Given the compound N#Cc1cccc(S(=O)(=O)c2sc3ncccc3c2-c2ccccc2Cl)c1 , write its reported log10(CLH).
a: 0.51
